Reported values of mortality (%) (500 ppm) Aphis for individual entries
system: Aphis craccivoral; assay: Insecticidal activity against Aphis craccivoral by immersing (dipping aphids on bean sprout); type: in vivo; conditions: 500 ppm; immersing (dipped 5 seconds); counted after 24 hours; 23° C.
Please format your answer as a value with the unit trailing.

compound: CCC(C)OC1CCC([N+](=O)[O-])=C2N(CC3CCOC3)CCN21 (stereo not shown) [Compound 55]
mortality (%) (500 ppm) Aphis: 45%

compound: CC(=O)OC1CCC([N+](=O)[O-])=C2N(Cc3cnc(Cl)s3)CCN21 (stereo not shown) [Compound 152]
mortality (%) (500 ppm) Aphis: 3%

compound: O=C(OC1CCC([N+](=O)[O-])=C2N(Cc3cnc(Cl)s3)CCN21)c1cccnc1 (stereo not shown) [Compound 159]
mortality (%) (500 ppm) Aphis: 0%

Challenge: Please tell me the measured mortality (%) (500 ppm) Aphis for COCCOC1CCC([N+](=O)[O-])=C2N(Cc3ccc(Cl)nc3)CCCN21 (stereo not shown) [Compound 83] ; system: Aphis craccivoral.
Response given: 38%

Challenge: Answer briefly: mortality (%) (500 ppm) Aphis recorded on Aphis craccivoral for O=[N+]([O-])C1=C2N(CC3CCOC3)CCN2C(OC2CCCCC2)CC1 (stereo not shown) [Compound 63]
Response given: 2%

----------
test system: Aphis craccivoral; experiment: Insecticidal activity against Aphis craccivoral by immersing (dipping aphids on bean sprout); format: in vivo; details: 500 ppm; immersing (dipped 5 seconds); counted after 24 hours; 23° C.
observationType: mortality (%) (500 ppm) Aphis
Don't forget the unit after the value.

compound: CCC(C)SC1CCC([N+](=O)[O-])=C2N(Cc3ccc(Cl)nc3)CCN21 (centres unmarked) [Compound 141]
mortality (%) (500 ppm) Aphis: 56%

Challenge: Read the entry O=[N+]([O-])C1=C2N(Cc3cnc(Cl)s3)CCCN2C(O)CC1 (centres unmarked) [Compound 85] and write its reported mortality (%) (500 ppm) Aphis.
Response given: 12%

Challenge: Could you please provide reported mortality (%) (500 ppm) Aphis for O=[N+]([O-])C1=C2N(Cc3cnc(Cl)s3)CCN2C(OCC(F)(F)F)CC1 (racemic) [Compound 27] ? Thanks!
Response given: 100%

Challenge: Return value of mortality (%) (500 ppm) Aphis for input CC(C)COC1CCC([N+](=O)[O-])=C2N(CC3CCOC3)CCCN21 (centres unmarked) [Compound 108] , no commentary.
Response given: 1%

Challenge: Please look at this compound and report its mortality (%) (500 ppm) Aphis: CC(C)COC1CCC([N+](=O)[O-])=C2N(Cc3cnc(Cl)s3)CCN21 (racemic) [Compound 32]
Response given: 37%

----------
# mortality (%) (500 ppm) Nilaparvata lugens per entry
tested on: Nilaparvata lugens; experiment: Insecticidal activity against Nilaparvata lugens (planthopper) by spraying; assay type: in vivo; conditions: 500 ppm; spraying 2 ml; counted after 24 hours
Give the value in % but do not write % after it.

In the examples that follow, each entry is paired with its recorded mortality (%) (500 ppm) Nilaparvata lugens.
molecule: CCCCOC1CCC([N+](=O)[O-])=C2N(Cc3ccc(Cl)nc3)CCCN21 (centres unmarked)
measurement: 61
--
molecule: CCC(=O)OC1CCC([N+](=O)[O-])=C2N(Cc3cnc(Cl)s3)CCN21 (centres unmarked)
measurement: 38
--
molecule: O=C(OC1CCC([N+](=O)[O-])=C2N(Cc3cnc(Cl)s3)CCN21)c1ccccc1 (centres unmarked)
measurement: 5
--
molecule: O=[N+]([O-])C1=C2N(Cc3cnc(Cl)s3)CCCN2C(OCCCl)CC1 (centres unmarked)
measurement: 34
--
molecule: O=C(OC1CCC([N+](=O)[O-])=C2N(Cc3ccc(Cl)nc3)CCN21)C(F)(F)F (centres unmarked)
measurement: 45

Challenge: Check the records and state mortality (%) (500 ppm) Nilaparvata lugens for CCCCOC1CCC([N+](=O)[O-])=C2N(Cc3cnc(Cl)s3)CCCN21 (centres unmarked)
Response given: 8

Challenge: Find the measured mortality (%) (500 ppm) Nilaparvata lugens of CCCSC1CCC([N+](=O)[O-])=C2N(Cc3ccc(Cl)nc3)CCN21 (centres unmarked) and report it.
Response given: 100

Challenge: Output measured mortality (%) (500 ppm) Nilaparvata lugens for this item: COC1CCC([N+](=O)[O-])=C2N(Cc3ccc(Cl)nc3)CCCN21 (centres unmarked)
Response given: 100

Challenge: Please give measured mortality (%) (500 ppm) Nilaparvata lugens of the following entry: CC(C)(C)OC1CCC([N+](=O)[O-])=C2N(Cc3cnc(Cl)s3)CCN21 (racemic)
Response given: 100

Challenge: Please list mortality (%) (500 ppm) Nilaparvata lugens recorded for the molecule CCC(C)OC1CCC([N+](=O)[O-])=C2N(Cc3ccc(Cl)nc3)CCCN21 (centres unmarked)
Response given: 8

Challenge: For the molecule CCCOC1CCC([N+](=O)[O-])=C2N(Cc3cnc(Cl)s3)CCCN21 (centres unmarked) , report mortality (%) (500 ppm) Nilaparvata lugens.
Response given: 51

Challenge: Entry CC(C)OC1CCC([N+](=O)[O-])=C2N(Cc3cnc(Cl)s3)CCN21 (racemic) needs its mortality (%) (500 ppm) Nilaparvata lugens filled in; supply it.
Response given: 100

----------
// reported mortality (%) (500 ppm) Nilaparvata lugens for each item listed
test system: Nilaparvata lugens; assay: Insecticidal activity against Nilaparvata lugens (planthopper) by spraying; type: in vivo; conditions: 500 ppm; spraying 2 ml; counted after 24 hours
# unit: % | format: bare number

compound: COCCOC1CCC([N+](=O)[O-])=C2N(CC3CCOC3)CCN21 (centres unmarked) [Compound 66]
measurement: 100

Challenge: Using the record for CC(C)OC1CCC([N+](=O)[O-])=C2N(Cc3ccc(Cl)nc3)CCCN21 (centres unmarked) [Compound 77] , state its measured mortality (%) (500 ppm) Nilaparvata lugens.
Response given: 78

Challenge: Note mortality (%) (500 ppm) Nilaparvata lugens for the compound shown: CCCCOC1CCC([N+](=O)[O-])=C2N(CC3CCOC3)CCN21 (centres unmarked) [Compound 53]
Response given: 12

Challenge: Specify reported mortality (%) (500 ppm) Nilaparvata lugens for the compound shown: O=C(OC1CCC([N+](=O)[O-])=C2N(Cc3ccc(Cl)nc3)CCN21)c1ccccn1 (centres unmarked) [Compound 121]
Response given: 8

Challenge: Report measured mortality (%) (500 ppm) Nilaparvata lugens; entry is CC(C)(C)OC1CCC([N+](=O)[O-])=C2N(Cc3cnc(Cl)s3)CCCN21 (centres unmarked) [Compound 96]
Response given: 100

Challenge: Answer with reported mortality (%) (500 ppm) Nilaparvata lugens of CS(=O)(=O)OC1CCC([N+](=O)[O-])=C2N(Cc3cnc(Cl)s3)CCN21 (centres unmarked) [Compound 156]
Response given: 92

Challenge: Please report the measured mortality (%) (500 ppm) Nilaparvata lugens for CC1CC(O)N2CCN(Cc3ccc(Cl)nc3)C2=C1[N+](=O)[O-] (centres unmarked) [Compound 69]
Response given: 56

Challenge: Identify mortality (%) (500 ppm) Nilaparvata lugens associated with the compound CCC(C)OC1CCC([N+](=O)[O-])=C2N(CC3CCOC3)CCN21 (centres unmarked) [Compound 55]
Response given: 12

Challenge: Specify mortality (%) (500 ppm) Nilaparvata lugens for CCC(C)OC1CCC([N+](=O)[O-])=C2N(Cc3cnc(Cl)s3)CCN21 (mixture of isomers) [Compound 33] and stop.
Response given: 56

----------
Reported mortality (%) (500 ppm) Aphis is given for each of the following compounds.
test system: Aphis craccivoral; assay: Insecticidal activity against Aphis craccivoral by immersing (dipping aphids on bean sprout); assay type: in vivo; conditions: 500 ppm; immersing (dipped 5 seconds); counted after 24 hours; 23° C.
Give the figure together with its unit, number first.

Completed entries (count: 5):
compound: C#CCOC1CCC([N+](=O)[O-])=C2N(Cc3cnc(Cl)s3)CCN21 (centres unmarked) [Compound 42]
mortality (%) (500 ppm) Aphis: 45%

compound: CC1CC(O)N2CCN(Cc3cnc(Cl)s3)C2=C1[N+](=O)[O-] (centres unmarked) [Compound 70]
mortality (%) (500 ppm) Aphis: 33%

compound: O=C(OC1CCC([N+](=O)[O-])=C2N(Cc3cnc(Cl)s3)CCN21)C(F)(F)F (centres unmarked) [Compound 155]
mortality (%) (500 ppm) Aphis: 48%

compound: CCOCCOC1CCC([N+](=O)[O-])=C2N(Cc3cnc(Cl)s3)CCN21 (centres unmarked) [Compound 44]
mortality (%) (500 ppm) Aphis: 67%

compound: O=C(OC1CCC([N+](=O)[O-])=C2N(Cc3ccc(Cl)nc3)CCN21)C(F)(F)F (centres unmarked) [Compound 116]
mortality (%) (500 ppm) Aphis: 2%

Challenge: Provide only the value of recorded mortality (%) (500 ppm) Aphis for CC(C)CCOC1CCC([N+](=O)[O-])=C2N(CC3CCOC3)CCN21 (centres unmarked) [Compound 60]
Response given: 3%

Challenge: Please look at this compound and report its mortality (%) (500 ppm) Aphis: CC(C)COC1CCC([N+](=O)[O-])=C2N(CC3CCOC3)CCN21 (centres unmarked) [Compound 54]
Response given: 23%

Challenge: # return recorded mortality (%) (500 ppm) Aphis for entry O=[N+]([O-])C1=C2N(Cc3ccc(Cl)nc3)CCN2C(OC2CCCCC2)CC1 (racemic) [Compound 18]
Response given: 23%

Challenge: Identify measured mortality (%) (500 ppm) Aphis corresponding to CCOCCOC1CCC([N+](=O)[O-])=C2N(CC3CCOC3)CCN21 (centres unmarked) [Compound 67]
Response given: 100%

Challenge: Supply mortality (%) (500 ppm) Aphis value. Item: CCC(C)OC1CCC([N+](=O)[O-])=C2N(Cc3cnc(Cl)s3)CCCN21 (centres unmarked) [Compound 95]
Response given: 4%

Challenge: Tell me its mortality (%) (500 ppm) Aphis given CC(C)(C)OC1CCC([N+](=O)[O-])=C2N(CC3CCOC3)CCCN21 (centres unmarked) [Compound 110] as the entry.
Response given: 67%

Challenge: Note down mortality (%) (500 ppm) Aphis recorded for CCCC(C)SC1CCC([N+](=O)[O-])=C2N(Cc3ccc(Cl)nc3)CCN21 (centres unmarked) [Compound 146]
Response given: 35%

Challenge: State, in one line, measured mortality (%) (500 ppm) Aphis of CCCCCSC1CCC([N+](=O)[O-])=C2N(Cc3ccc(Cl)nc3)CCN21 (centres unmarked) [Compound 143]
Response given: 23%

Challenge: Return mortality (%) (500 ppm) Aphis for the following compound: CC(C)(C)CSC1CCC([N+](=O)[O-])=C2N(Cc3ccc(Cl)nc3)CCN21 (centres unmarked) [Compound 147]
Response given: 56%
